Every entry's value here was drawn from paper PMC10786891.

Study Target: T1, EsCas13d, nuclease-dead (Eubacterium siraeum, UniProt B0MS50, R295A;H300A;R849A;H854A)
T1 sequence: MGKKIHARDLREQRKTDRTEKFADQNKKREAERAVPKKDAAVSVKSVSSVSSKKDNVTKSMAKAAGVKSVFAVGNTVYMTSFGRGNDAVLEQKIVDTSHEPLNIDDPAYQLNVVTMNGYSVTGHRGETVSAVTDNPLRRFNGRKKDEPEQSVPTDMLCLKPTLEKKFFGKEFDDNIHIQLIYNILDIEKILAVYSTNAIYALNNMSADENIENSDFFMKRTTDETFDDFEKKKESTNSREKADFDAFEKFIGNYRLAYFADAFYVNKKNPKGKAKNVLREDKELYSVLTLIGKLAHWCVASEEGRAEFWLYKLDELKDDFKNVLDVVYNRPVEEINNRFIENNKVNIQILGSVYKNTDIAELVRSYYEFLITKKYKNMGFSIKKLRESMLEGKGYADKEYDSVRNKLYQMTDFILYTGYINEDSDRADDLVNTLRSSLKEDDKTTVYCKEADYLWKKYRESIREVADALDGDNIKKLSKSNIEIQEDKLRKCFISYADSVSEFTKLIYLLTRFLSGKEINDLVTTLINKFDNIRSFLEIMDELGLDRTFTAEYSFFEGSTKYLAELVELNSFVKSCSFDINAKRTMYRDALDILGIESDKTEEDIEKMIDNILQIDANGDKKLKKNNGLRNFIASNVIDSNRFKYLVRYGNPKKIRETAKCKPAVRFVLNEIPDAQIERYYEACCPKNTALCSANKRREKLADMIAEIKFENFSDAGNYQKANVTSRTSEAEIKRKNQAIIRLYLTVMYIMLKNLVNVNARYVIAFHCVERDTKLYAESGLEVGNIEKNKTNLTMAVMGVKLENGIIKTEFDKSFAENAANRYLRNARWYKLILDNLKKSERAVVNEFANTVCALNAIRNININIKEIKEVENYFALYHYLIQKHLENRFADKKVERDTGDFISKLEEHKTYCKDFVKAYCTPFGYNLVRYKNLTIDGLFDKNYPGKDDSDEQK
Experiment Summary: crRNA (strand 1, pre-loaded); Mg2+; 40 mM Tris-HCl pH 7.5, 150 mM NaCl, 6 mM MgCl2, 1 mM DTT, 0.1% Tween-20, 0.2 mg/ml BSA; 25 C; 10 min per concentration, then washed
Experimental Context: tags: His6-TwinStrep-SUMO cleaved; N-terminal SNAP kept (SNAP-Surface 488); label: 3' end held by stalled T7 RNA polymerase
pKd: −log10 of the molar value.
Assay Endpoint: pKd

{"columns": ["Binder", "Measured Value"],
 "data": [
  ["target 2 MT 5'PFS GGG 3'PFS UGU (mixed) RNA 1: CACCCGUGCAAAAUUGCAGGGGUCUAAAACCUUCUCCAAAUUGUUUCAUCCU RNA 2: GGGAAUGGAUCCACAUCUACGAAUUCGGGAGGAUGAAACAAUUUGGAGAAGUGUAGAUCGGAAGAGCACACGU", 7.91],
  ["target 3 insG 3' of 8,insC 3' of 5 (mixed) RNA 1: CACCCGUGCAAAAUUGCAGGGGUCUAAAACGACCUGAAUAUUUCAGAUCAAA RNA 2: GGGAAUGGAUCCACAUCUACGAAUUCGUUUUUGAUCUGAAAUAUGUCACGGUCUGCAGAUCGGAAGAGCACACGU", 7.41],
  ["target 2 MT 5'PFS GGC 3'PFS UAG (mixed) RNA 1: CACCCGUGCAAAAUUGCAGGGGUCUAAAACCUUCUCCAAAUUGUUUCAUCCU RNA 2: GGGAAUGGAUCCACAUCUACGAAUUCGGCAGGAUGAAACAAUUUGGAGAAGUAGAGAUCGGAAGAGCACACGU", 7.88],
  ["target 3 insA 3' of 7,insA 3' of 4 (mixed) RNA 1: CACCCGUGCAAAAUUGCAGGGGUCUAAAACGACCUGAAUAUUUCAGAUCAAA RNA 2: GGGAAUGGAUCCACAUCUACGAAUUCGUUUUUGAUCUGAAAUAUUACAGAGUCUGCAGAUCGGAAGAGCACACGU", 7.18],
  ["target 2 MT 5'PFS GCU 3'PFS AUU (mixed) RNA 1: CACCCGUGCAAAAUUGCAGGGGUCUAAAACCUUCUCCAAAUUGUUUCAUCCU RNA 2: GGGAAUGGAUCCACAUCUACGAAUUCGCUAGGAUGAAACAAUUUGGAGAAGAUUAGAUCGGAAGAGCACACGU", 7.82],
  ["target 1 complement block 6-12 (mixed) RNA 1: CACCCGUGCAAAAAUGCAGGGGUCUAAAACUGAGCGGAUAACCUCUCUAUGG RNA 2: GGGAAUGGAUCCACAUCUACGAAUUCGUACCAUAGAGAGCAAUAGGGCUCACCGAGAUCGGAAGAGCACACGU", 7.78],
  ["target 1 C2G,A9C (mixed) RNA 1: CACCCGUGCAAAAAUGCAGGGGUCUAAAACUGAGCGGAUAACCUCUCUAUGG RNA 2: GGGAAUGGAUCCACAUCUACGAAUUCGUACCAUAGAGAGGUUCUCCGCUGACCGAGAUCGGAAGAGCACACGU", 7.82],
  ["target 1 C6A,A14G (mixed) RNA 1: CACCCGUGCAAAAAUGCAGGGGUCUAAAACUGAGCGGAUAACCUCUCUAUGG RNA 2: GGGAAUGGAUCCACAUCUACGAAUUCGUACCAUAGAGGGGUUAUCAGCUCACCGAGAUCGGAAGAGCACACGU", 7.90]
]}
